- assayExplanation: chemical genetic growth profiling, strain panel (AID 1159580);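 note: tested at 20 µM; growth read once vehicle control cultures reached saturation at 30 °C; 1 = growth at the plate median or of vehicle wells; lower values mean less growth of the strain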
- assaySetup: S. cerevisiae deletion strains, growth OD, locus YPR167C, strain met16, active compounds read low
The whole screen tested about 5,500 compounds, of which about 2,000 (36%) were called active. Not shown: some 18% with an inconclusive outcome. Some of the results follow.
// reported normalized growth for each item listed
Keep the answer to the number alone.

Known normalized growth results, listed for orientation:
compound: NC(N)=Nc1ccc(Cl)cc1
valueReported: 0.997
--
compound: C[C@H]1[C@H](C)CC[C@]2(C(=O)O)CC[C@]3(C)C(=CCC4[C@@]5(C)C[C@@H](O)[C@H](O)[C@@](C)(CO)C5[C@H](O)C[C@]43C)[C@H]12 (stereo partly drawn)
valueReported: 0.974
--
compound: Cc1ccc(C(C)C)c(O)c1C(=O)O
valueReported: 0.936
--
compound: CC1(C)S[C@@H]2C(N3C(=O)[C@@H](c4ccccc4)NC3(C)C)C(=O)N2[C@H]1C(=O)O (stereo partly drawn)
valueReported: 1.02
--
compound: CO[C@@H]1[C@@H](OC(N)=O)[C@@H](O)[C@H](Oc2ccc3c(O)c(NC(=O)c4ccc(O)c(CC=C(C)C)c4)c(=O)oc3c2C)OC1(C)C
valueReported: 0.999
--
compound: CN(C)C(=O)C(CCN1CCC(O)(c2ccc(Cl)cc2)CC1)(c1ccccc1)c1ccccc1
valueReported: 1.01

Request: Could you tell me which normalized growth is on file for NC[C@@H]1O[C@H](O[C@@H]2[C@@H](CO)OC(O[C@@H]3[C@@H](O)[C@H](N)C[C@H](N)[C@H]3O[C@H]3O[C@H](CO)[C@@H](O)[C@H](O)[C@H]3N)[C@@H]2O)[C@H](N)[C@@H](O)[C@@H]1O (stereo partly drawn) ?
Result: 0.999

Request: Next: O=C(CCCN1CCC2(CC1)C(=O)NCN2c1ccccc1)c1ccc(F)cc1
Result: 0.999

---

# normalized growth annotations
- assayExplanation: chemical genetic growth profiling, strain panel (AID 1159580)
- assaySetup: S. cerevisiae deletion strains, growth OD, locus YIL125W, strain kgd1, active compounds read low
About 2,000 (36%) of roughly 5,500 compounds were called active. Another 18% or so got no clear call; they are omitted. The list shows a part of the results.
Kindly provide the number alone.

Sample answers from the record:
compound: Cc1c(OCC(F)(F)F)ccnc1CS(=O)c1nc2ccccc2[nH]1 (stereo unspecified)
normalized growth: 0.952

compound: C[C@@H](CO)NC(=O)C1C=C2c3cccc4[nH]cc(c34)C[C@H]2N(C)C1 (stereo partly specified)
normalized growth: 0.99

compound: COc1ccc(-c2cc(=O)c3c(O)cc(O)cc3o2)cc1O
normalized growth: 0.995

compound: O=C(Oc1ccccc1C(=O)O)c1ccccc1O
normalized growth: 0.992

compound: NCCCCN
normalized growth: 0.997

For the next question, use this compound.
Request: State the recorded normalized growth for this entry: COc1cc(O)c2c(=O)cc(-c3ccc(OC)c(-c4c(O)cc(O)c5c(=O)cc(-c6ccc(O)cc6)oc45)c3)oc2c1
Result: 0.99

---

Recorded measurements of normalized growth, one per entry
- assayExplanation: chemical genetic growth profiling, strain panel (AID 1159580);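 note: tested at 20 µM; growth read once vehicle control cultures reached saturation at 30 °C; 1 = growth at the plate median or of vehicle wells; lower values mean less growth of the strain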
- assaySetup: S. cerevisiae deletion strains, growth OD, locus YGL248W, strain PDE1, active compounds read low
Out of some 5,500 compounds screened, about 2,000 (36%) were called active. Inconclusive results (about 18%) are left out. This is one part of the list.
Please reply with the number alone, leaving off any unit.

Request: Form field: reported normalized growth of CC1(C)S[C@@H]2[C@H](NC(=O)C(C(=O)O)c3ccccc3)C(=O)N2[C@H]1C(=O)O (some centres not stated)
Result: 0.982

---

- assayExplanation: chemical genetic growth profiling, strain panel (AID 1159580);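 note: tested at 20 µM; growth read once vehicle control cultures reached saturation at 30 °C; 1 = growth at the plate median or of vehicle wells; lower values mean less growth of the strain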
- assaySetup: S. cerevisiae deletion strains, growth OD, strain wtn01, active compounds read low
Hit rate of the full screen: of about 5,500 compounds, about 2,000 (36%) were called active. Another 18% or so got no clear call; they are omitted. This is one part of the list.
Items are presented alongside their recorded normalized growth.

Take a look at these entries with their results.
molecule: COc1cc(O)c2c(=O)cc(-c3ccc(O)cc3)oc2c1
normalized growth: 1.02 (inactive)

molecule: O=C(Oc1ccccc1C(=O)O)c1ccccc1O
normalized growth: 1.02 (inactive)

molecule: CC(=O)O[C@@H]1CC2C(C)(C)CCC[C@]2(C)C2CC[C@]3(C)C(=CC(=O)O[C@H]3c3ccoc3)[C@@]21C (some centres undefined)
normalized growth: 0.996 (inactive)

molecule: CCCc1nn(C)c2c(=O)[nH]c(-c3cc(S(=O)(=O)N4CCN(C)CC4)ccc3OCC)nc12
normalized growth: 0.998 (inactive)

Request: Report normalized growth for COc1ccc(-c2cc(=O)c3c(O)c(OC)c(OC)cc3o2)cc1O please.
Result: 0.92 (inactive)

Request: Next entry: Nc1ccc(S(=O)(=O)Nc2ncccn2)cc1
Result: 1.01 (inactive)

Request: Also check C[N+]1(C)C[C@H](O)[C@H](C(=O)[O-])C1
Result: 0.988 (inactive)

Request: And what about the molecule CC(=O)Oc1ccccc1C(=O)Oc1ccccc1C(=O)O ?
Result: 0.998 (inactive)

Request: Record: NCCCCN
Result: 0.995 (inactive)

Request: Do the same for CO[C@@H]1[C@@H](OC(N)=O)[C@@H](O)[C@H](Oc2ccc3c(O)c(NC(=O)c4ccc(O)c(CC=C(C)C)c4)c(=O)oc3c2C)OC1(C)C please
Result: 0.984 (inactive)

Request: // query: COc1ccc(-c2cc(=O)c3c(O)cc(O)cc3o2)cc1
Result: 1 (inactive)

Request: What about COC(=O)[C@H]1[C@H]2C[C@H]3c4[nH]c5cc(OC)ccc5c4CCN3C[C@H]2C[C@@H](OC(=O)c2cc(OC)c(OC)c(OC)c2)[C@@H]1OC ?
Result: 0.992 (inactive)

Request: Please answer likewise for CC1(C)S[C@@H]2[C@H](NC(=O)C(C(=O)O)c3ccccc3)C(=O)N2[C@H]1C(=O)O (some centres undefined)
Result: 0.984 (inactive)

Request: Param item: O=C(O)c1ccccc1O
Result: 1.01 (inactive)

Request: Same thing, different molecule: C/C=C/CC(C)C(O)C1C(=O)NC(CC)C(=O)N(C)CC(=O)N(C)C(CC(C)C)C(=O)NC(C(C)C)C(=O)N(C)C(CC(C)C)C(=O)NC(C)C(=O)NC(C)C(=O)N(C)C(CC(C)C)C(=O)N(C)C(CC(C)C)C(=O)N(C)C(C(C)C)C(=O)N1C (centres undefined)
Result: 1.02 (inactive)

Request: Then this molecule: NC(=O)c1cc([N+](=O)[O-])cc([N+](=O)[O-])c1
Result: 0.98 (inactive)

Request: And for CC1(C)S[C@@H]2[C@H](NC(=O)[C@@H](N)c3ccc(O)cc3)C(=O)N2[C@H]1C(=O)O ?
Result: 0.976 (inactive)

Request: Follow-up item: CC1=C2C(O)C(=O)OC3CC4C(C)(C)C(=O)C=C[C@]4(C)C(CC1)[C@]23C (some centres undefined)
Result: 0.994 (inactive)

Request: What about CN(C)CC[C@H](c1ccc(Cl)cc1)c1ccccn1 ?
Result: 0.995 (inactive)

---

- assayExplanation: chemical genetic growth profiling, strain panel (AID 1159580);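 note: tested at 20 µM; growth read once vehicle control cultures reached saturation at 30 °C; 1 = growth at the plate median or of vehicle wells; lower values mean less growth of the strain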
- assaySetup: S. cerevisiae deletion strains, growth OD, locus YOR184W, strain ser1, active compounds read low
Screen size: about 5,500 compounds; about 2,000 (36%) were called active. About 18% were inconclusive and are not listed. Some of the results follow.
For each record, check the reported normalized growth: if it is below 1 write yes (1), else write no (0).

Example cases with answers are listed next.
molecule: CC1=CC(=O)C(C(C)C)=CC1=O
labelValue: yes (1)

molecule: C/C=C(/C)C(=O)O[C@@H]1Cc2c(ccc3ccc(=O)oc23)OC1(C)C
labelValue: yes (1)

molecule: O=C(CCCN1CCC(O)(c2ccc(Cl)cc2)CC1)c1ccc(F)cc1
labelValue: yes (1)

Request: Report whether reported normalized growth is lower than 1 (strictly) for COC1CC(O[C@H]2CC[C@]3(C=O)C4CC[C@]5(C)C(C6=CC(=O)OC6)CC[C@]5(O)C4CC[C@]3(O)C2)OC(C)C1O (some centres undefined)
Result: no (0)

Request: Do the same for CO[C@@H]1C[C@H](O[C@H]2CC[C@]3(C)C4CC[C@]5(C)[C@@H](C6=CC(=O)OC6)CC[C@]5(O)[C@@H]4CC[C@]3(O)C2)O[C@H](C)[C@@H]1O (some centres undefined) please
Result: yes (1)

Request: Same thing, different molecule: C[C@]12CCC(=O)C=C1CCc1ccc(O)cc12
Result: no (0)

Request: Also COC(=O)CC1C(C)(C)C(OC(C)=O)[C@@H]2[C@@H](OC(C)=O)[C@]34O[C@@]2(O)[C@]1(C)C3CC[C@]1(C)C4=CC(=O)O[C@H]1c1ccoc1 (some centres undefined) ?
Result: yes (1)

Request: And then CNC[C@H](O)c1cccc(O)c1 , what is it?
Result: no (0)

Request: // same read-out, input: COc1ccc(-c2cc(=O)c3c(O)c(OC)c(OC)cc3o2)cc1O
Result: yes (1)

Request: // same read-out, input: COC(=O)C(N)CS (centres undefined)
Result: yes (1)

Request: Follow-up entry: CC1(C)S[C@@H]2C(N3C(=O)[C@@H](c4ccccc4)NC3(C)C)C(=O)N2[C@H]1C(=O)O (some centres undefined)
Result: no (0)
